Values were extracted from patent US8163779B2.

// pEC50 lookup, one value per entry
molecular target: glucokinase (GK) (Homo sapiens, UniProt P35557); construct: I.D. No. 1 corresponds to residues 12-465 of glucokinase; assay: enzymatic glucokinase activity assay (ATP consumption, KinaseGlo luminescence); details: recombinant GK residues 12-465; 5 μM ATP, 5 mM Glucose; Kact = concentration that displays 50% of the maximal increase in GK activity; read-out: pKact
Sequence (P35557 with tags, fused parts or gaps isoform P35557-2): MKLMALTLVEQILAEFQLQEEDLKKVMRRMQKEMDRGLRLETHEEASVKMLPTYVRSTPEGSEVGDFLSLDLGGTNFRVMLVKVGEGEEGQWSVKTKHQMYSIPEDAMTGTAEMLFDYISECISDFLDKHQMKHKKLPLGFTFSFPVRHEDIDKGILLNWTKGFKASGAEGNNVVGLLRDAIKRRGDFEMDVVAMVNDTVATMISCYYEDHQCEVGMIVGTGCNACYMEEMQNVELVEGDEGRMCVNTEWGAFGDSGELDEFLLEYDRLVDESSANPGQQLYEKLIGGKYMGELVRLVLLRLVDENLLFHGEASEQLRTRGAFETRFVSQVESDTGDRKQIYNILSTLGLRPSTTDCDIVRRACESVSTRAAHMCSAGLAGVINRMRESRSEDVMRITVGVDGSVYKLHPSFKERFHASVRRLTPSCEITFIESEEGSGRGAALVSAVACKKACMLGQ
pEC50: −log10 of the molar value.

These solved cases illustrate the format of a correct answer.
>>> reading("N#Cc1cnc(NC(=O)[C@@H](CC2CCOCC2)n2ccc(S(=O)(=O)C3CCCC3)cc2=O)s1")
"< 4.80"
>>> reading("COc1ccc(Cl)cc1-c1cc(C)n([C@@H](CC2CCCCC2)C(=O)Nc2nccs2)c(=O)c1")
"< 4.80"
>>> reading("Cc1cc(S(=O)(=O)c2cccc(F)c2)cc(=O)n1C(CC1CCOCC1)C(=O)Nc1ncc(Cl)s1 (stereo not drawn)")
"> 5.80"
>>> reading("O=C(Nc1nc2ccc(O)cc2s1)C(CC1CCOCC1)n1ccc(S(=O)(=O)C2CC2)cc1=O (stereo not drawn)")
"< 4.80"
>>> reading("Cc1cc(S(=O)(=O)C2CCS(=O)(=O)CC2)cc(=O)n1C(CC1CCCCC1)C(=O)Nc1ncc(F)s1 (stereo not drawn)")
"4.80 to 5.80"
>>> reading("COc1ccc2nc(NC(=O)[C@H](CC3CCOCC3)n3ccc(S(=O)(=O)C4CCCC4)cc3=O)sc2n1")
"> 5.80"
>>> reading("Cc1cc(-c2cccc(NS(C)(=O)=O)c2)cc(=O)n1[C@@H](CC1CCCCC1)C(=O)Nc1nccs1")
"< 4.80"
>>> reading("Cc1cc(S(=O)(=O)C2CCCC2)cc(=O)n1[C@H](CC1CCOCC1)C(=O)Nc1ccc(F)cn1")
"< 4.80"

Sample CCS(=O)(=O)c1ccc(-c2cc(C)n([C@@H](CC3CCCCC3)C(=O)Nc3nccs3)c(=O)c2)cc1 — what was its pEC50?
< 4.80

Here is the next molecule: Cc1cc(S(=O)(=O)C2CC2)cc(=O)n1C(CC1CCCC1)C(=O)Nc1ncc(Cl)s1 (stereo not drawn)
> 5.80

And the next one, O=C(Nc1nc2ccc(F)cc2s1)C(CC1CCOCC1)n1ccc(S(=O)(=O)C2CC2)cc1=O (stereo not drawn) ?
4.80 to 5.80

Now the molecule COc1ccc2nc(NC(=O)[C@@H](CC3CCOCC3)n3ccc(S(=O)(=O)C4CCCC4)cc3=O)sc2n1
< 4.80
